Below, each of the molecules is paired with its reported IC50 value.
study_system: Transient receptor potential cation channel subfamily V member 1 (Homo sapiens)
Sequence (Q8NER1 whole entry): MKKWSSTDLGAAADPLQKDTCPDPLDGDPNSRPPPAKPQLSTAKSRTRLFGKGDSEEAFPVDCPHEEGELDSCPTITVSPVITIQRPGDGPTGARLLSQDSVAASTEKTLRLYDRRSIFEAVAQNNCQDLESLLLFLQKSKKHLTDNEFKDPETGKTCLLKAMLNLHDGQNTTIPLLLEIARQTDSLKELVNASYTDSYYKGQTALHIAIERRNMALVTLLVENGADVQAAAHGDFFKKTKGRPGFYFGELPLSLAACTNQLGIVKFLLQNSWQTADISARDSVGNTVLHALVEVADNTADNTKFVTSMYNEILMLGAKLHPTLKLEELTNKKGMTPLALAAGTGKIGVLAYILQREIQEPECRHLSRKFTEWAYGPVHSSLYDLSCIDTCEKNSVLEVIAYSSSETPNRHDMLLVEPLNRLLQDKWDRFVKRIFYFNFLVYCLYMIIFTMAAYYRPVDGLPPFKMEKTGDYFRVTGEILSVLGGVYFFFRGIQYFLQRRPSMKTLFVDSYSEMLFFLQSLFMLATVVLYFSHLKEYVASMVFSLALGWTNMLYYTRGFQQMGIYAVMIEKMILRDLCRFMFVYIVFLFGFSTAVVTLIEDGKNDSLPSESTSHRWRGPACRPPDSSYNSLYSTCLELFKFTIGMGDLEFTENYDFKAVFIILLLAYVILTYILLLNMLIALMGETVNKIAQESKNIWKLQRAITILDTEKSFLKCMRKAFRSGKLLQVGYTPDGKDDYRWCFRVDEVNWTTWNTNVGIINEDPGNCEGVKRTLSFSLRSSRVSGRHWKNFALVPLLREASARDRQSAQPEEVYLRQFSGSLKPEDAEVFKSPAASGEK
experiment_description: Antagonist activity at human TRPV1 expressed in HEK293 cells assessed as inhibition of capsaicin-induced intracellular Ca2+ level by FLIPR assay
Assay type: functional, cell-based
Report as: number unit

# lookup: IC50 of "FC(F)(F)c1ccc(Nc2nc(N3CCN(C4CC4)CC3)nc3c2CCN(c2ncccc2C(F)(F)F)CC3)cc1" 11 nM

###

experiment_description: Oral bioavailability in fasted Sprague-Dawley rat at 2 mg/kg
Format: ADME, organism-based
condition_description: in vivo
measured_attribute: bioavailability

Report bioavailability for "CC(C)CN1CCN(c2nc3c(c(Nc4ccc(C(F)(F)F)cc4)n2)CCN(c2ncccc2C(F)(F)F)CC3)CC1" please. 21%
